# Measurement target: human melanocortin-1 receptor hMCR-1 expressed by the human melanoma cell line HBL (human, UniProt Q01726 1-317)
# Sequence (Q01726 whole entry): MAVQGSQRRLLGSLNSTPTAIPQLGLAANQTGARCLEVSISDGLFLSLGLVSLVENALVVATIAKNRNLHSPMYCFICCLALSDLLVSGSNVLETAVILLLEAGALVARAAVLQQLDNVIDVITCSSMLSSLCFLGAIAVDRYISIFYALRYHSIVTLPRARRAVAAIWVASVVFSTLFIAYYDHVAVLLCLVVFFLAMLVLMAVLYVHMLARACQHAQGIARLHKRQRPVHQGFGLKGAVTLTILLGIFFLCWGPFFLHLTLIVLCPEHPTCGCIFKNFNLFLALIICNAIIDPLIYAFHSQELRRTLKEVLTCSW
# Method: cell-based or functional assay
Bridge positions count the residues as written; N and C are the ends. Square brackets hold non-standard residues; d marks the D form. dPhe(4-Cl) = N[C@H](Cc1ccc(Cl)cc1)C(=O)O; dPhe(4-F) = N[C@H](Cc1ccc(F)cc1)C(=O)O; Nle = CCCC[C@H](N)C(=O)O; Orn = NCCC[C@H](N)C(=O)O; Dab = NCC[C@H](N)C(=O)O; Dap = NC[C@H](N)C(=O)O
Endpoint label: MC-1 EC50 (average; cAMP HBL) (nM)

Please review the entries below; each comes with its answer.
Exercise: Bench note: what MC-1 EC50 (average; cAMP HBL) did Ac-[Nle]EH[dF]A[Dab]-NH2 (lactam 2-6; SMILES CCCC[C@H](NC(C)=O)C(=O)N[C@H]1CCC(=O)NCC[C@@H](C(N)=O)NC(=O)[C@H](C)NC(=O)[C@@H](Cc2ccccc2)NC(=O)[C@H](Cc2c[nH]cn2)NC1=O) [Ac-Nle-cyclo(Glu-His-D-Phe-Ala-Dab)-NH2 (SEQ ID NO: 48)] show?
Key: 44

Exercise: Could you do the same for Ac-[Nle]E[Orn][dPhe(4-Cl)]R[Dab]-NH2 (lactam 2-6; SMILES CCCC[C@H](NC(C)=O)C(=O)N[C@H]1CCC(=O)NCC[C@@H](C(N)=O)NC(=O)[C@H](CCCNC(=N)N)NC(=O)[C@@H](Cc2ccc(Cl)cc2)NC(=O)[C@H](CCCN)NC1=O) [Ac-Nle-cyclo(Glu-Orn-D-Phe(4-Cl)-Arg-Dab)-NH2] , please?
Key: 0.1

Exercise: Could you do the same for Ac-[Nle]E[Orn][dPhe(4-F)]R[Dab]-NH2 (lactam 2-6; SMILES CCCC[C@H](NC(C)=O)C(=O)N[C@H]1CCC(=O)NCC[C@@H](C(N)=O)NC(=O)[C@H](CCCNC(=N)N)NC(=O)[C@@H](Cc2ccc(F)cc2)NC(=O)[C@H](CCCN)NC1=O) [Ac-Nle-cyclo(Glu-Orn-D-Phe(4-F)-Arg-Dab)-NH2] , please?
Key: 1

P. Ac-[Nle]E[Orn][dPhe(4-OMe)]R[Dab]-NH2 (lactam 2-6) [Ac-Nle-cyclo(Glu-Orn-D-Phe(4-OMe)-Arg-Dab)-NH2]
Q. Ac-[Nle]E[Orn][dPhe(3,4-F)]R[Dab]-NH2 (lactam 2-6) [Ac-Nle-cyclo(Glu-Orn-D-Phe(3,4-F)-Arg-Dab)-NH2]
R. Ac-[Nle][Dap]H[dF]R[Dab]W-NH2 (linker 2-6 via C(:O)‑(CH2)2‑C(:O)) [Ac-Nle-cyclo(Dap-His-D-Phe-Arg-Dab)-Trp-NH2 with bridge C(═O)-(CH2)2-C(═O)]
S. Ac-[Nle][Dap]H[dF]R[Dap]W-NH2 (linker 2-6 via C(:O)‑(CH2)2‑C(:O)) [Ac-Nle-cyclo(Dap-His-D-Phe-Arg-Dap)-Trp-NH2 with bridge C(═O)-(CH2)2-C(═O)]
Exercise: Returns the items ordered by MC-1 EC50 (average; cAMP HBL), from maximum to minimum. Write the labels out in the order the request specifies.
Key: Q, P, R, S
(Q: 1 nM, P: 0.12 nM, R: 0.016 nM, S: 0.007 nM)
